Kindly supply the reported t1/2 values for the records listed here.
- PROTOCOL_DETAILS: Half-life in male C57BL/6J mouse plasma at 10 mg/kg, po administrated via oral gavage by LC-MS/MS analysis
- Type: ADME, organism-based
- EXPERIMENTAL_SETUP: in vivo
Your answer is read as min, so omit the unit and give the number.

Notebook: CC(C)(C)OC(=O)NNc1nc2nonc2nc1Nc1ccccc1Cl , t1/2 read as 108

// field: t1/2; key: O=C(ONc1nc2nonc2nc1Nc1ccccc1F)c1ccc(OC(F)(F)F)cc1 ; value = 15

The compound identified as CC(C)(C)OC(=O)NNc1nc2nonc2nc1Nc1ccccc1F registered its t1/2 at 27

// sample CC(C)COC(=O)NNc1nc2nonc2nc1Nc1ccccc1F , its t1/2 was 35.4

###

- PROTOCOL_DETAILS: Cmax in C57BL/6J mouse at 10 mg/kg, po administrated via oral gavage by LC-MS/MS analysis
- Type: ADME, organism-based
- EXPERIMENTAL_SETUP: C57BL/6J, in vivo
READOUT_KIND: Cmax (nM)
Write the number in nM without appending the unit.

Value of measured Cmax for the entry O=C(ONc1nc2nonc2nc1Nc1ccccc1F)c1ccc(OC(F)(F)F)cc1 : 2

###

- PROTOCOL_DETAILS: Induction of mitochondrial uncoupling activity in rat L6 myoblast cells assessed as increase in oxygen consumption rate by measuring ratio of integrated area under OCR dose curve above baseline relative to BAM15 up to 200 uM over 90 mins
- Format: functional
READOUT_KIND: Activity (%)
Supply the numeric figure in %, leaving out any unit text.

Value of measured Activity for the entry CC(C)(C)OC(=O)NNc1nc2nonc2nc1Nc1cccc(F)c1 : 32

compound O=C(NNc1nc2nonc2nc1Nc1ccccc1F)NC1CCCC1 , Activity observed: 23

// Activity value for CCOC(=O)NNc1nc2nonc2nc1Nc1ccccc1F : 65

The compound listed as Cc1cc(C)cc(C(=O)ONc2nc3nonc3nc2Nc2ccccc2F)c1 shows Activity equal to 9

Sure, the documented Activity for O=C(ONc1nc2nonc2nc1Nc1ccccc1F)c1cccc(F)c1 is 102

Query O=C(ONc1nc2nonc2nc1Nc1ccccc1F)c1ccccc1C(F)(F)F yields Activity of 65

What the record says about CNNc1nc2nonc2nc1Nc1ccccc1F : Activity is 15

Looking up CC(C)COC(=O)NNc1nc2nonc2nc1Nc1ccccc1F , I found its Activity recorded as 88

# Activity (compound: CCCC(=O)NNc1nc2nonc2nc1Nc1ccccc1F ) is 31

Notebook: CC(C)(C)C(=O)ONc1nc2nonc2nc1Nc1ccccc1F , Activity read as 86

Reported Activity of O=C(NNc1nc2nonc2nc1Nc1ccccc1F)c1ccc(OC(F)(F)F)cc1 : 6

Just so you know, measured Activity for CC(C)(C)OC(=O)NNc1nc2nonc2nc1Nc1cccc(Cl)c1 came out at 78

response.value for O=C(ONc1nc2nonc2nc1Nc1ccccc1F)c1ccc(OC(F)(F)F)cc1 (field: Activity) = 118

Activity for CN(Nc1nc2nonc2nc1Nc1ccccc1F)C(=O)OC(C)(C)C is 65

Entry O=C(ONc1nc2nonc2nc1Nc1ccccc1F)c1ccccc1F — recorded Activity = 45

Entry O=C(NNc1nc2nonc2nc1Nc1ccccc1F)c1cccc(F)c1 ; Activity = 8

Field Activity (entry CC(C)(C)OC(=O)NNc1nc2nonc2nc1Nc1ccccc1Cl ) reads 87

Summary for this compound, CCCCC(=O)NNc1nc2nonc2nc1Nc1ccccc1F : Activity is 71

// sample O=C(ONc1nc2nonc2nc1Nc1ccccc1F)c1cccc(C(F)(F)F)c1 , its Activity was 71

The compound listed as ONc1nc2nonc2nc1Nc1ccccc1F has a reported Activity of 41

# compound O=C(ONc1nc2nonc2nc1Nc1ccccc1F)c1cc(C(F)(F)F)ccc1F ; its Activity = 75

Summary for this compound, CC(C)(C)OC(=O)NNc1nc2nonc2nc1Nc1ccccc1F : Activity is 103

// sample O=C(ONc1nc2nonc2nc1Nc1ccccc1F)c1ccc(F)cc1F , its Activity was 97

So for CCCCOC(=O)NNc1nc2nonc2nc1Nc1ccccc1F , the logged Activity turned out to be 54

###

- PROTOCOL_DETAILS: Cmax in C57BL/6J mouse at 10 mg/kg, po administrated via oral gavage by LC-MS/MS analysis
- Type: ADME, organism-based
- EXPERIMENTAL_SETUP: in vivo, po, 10 mg/kg
Provide the reported Cmax of each item.
Express the result in nM but write the number alone.

Given item CC(C)COC(=O)NNc1nc2nonc2nc1Nc1ccccc1F , the value recorded as its Cmax is 6600

The recorded Cmax for entry CC(C)(C)OC(=O)NNc1nc2nonc2nc1Nc1ccccc1F equals 220

response.value for CC(C)(C)OC(=O)NNc1nc2nonc2nc1Nc1ccccc1Cl (field: Cmax) = 170
